# Tested on: IGROV1 ovarian
# EXPERIMENT DESCRIPTION: NCI-60 one-dose screen, 48 h
# CONDITION SUMMARY: 10 µM unless noted
About 83,000 compounds went through this panel and 20% of them were active in at least one assay; those are over-represented in the sample as a whole. The source made the active and inactive calls. How the source made its calls: active means growth percent below 10; inactive means the rest.
Outcome codes: active, inactive

MOLECULE: C[C@@H](NC(=O)c1ncnc(N)c1Cl)c1ncc(C(=O)Nc2cc(C(F)(F)F)c(Cl)cn2)s1
TESTED ON: IGROV1 ovarian
LABEL: inactive
--
MOLECULE: O=c1nc2c(-c3nc4ccccc4s3)n[nH]n2c2sc3c(c12)CCCC3
TESTED ON: IGROV1 ovarian
LABEL: inactive
--
MOLECULE: CC(=O)c1c(C)c2cnc(Nc3ccc(N4CCNCC4)cn3)nc2n(C2CCCC2)c1=O
TESTED ON: IGROV1 ovarian
LABEL: inactive
--
MOLECULE: CC(=O)c1cnc2ccc(-c3cc(Cl)c(O)c(Cl)c3)nc2c1NC1CCC(CN(C)C)CC1 (stereo unspecified)
TESTED ON: IGROV1 ovarian
LABEL: active
--
MOLECULE: C=CCN(/C=C1/C(=O)O[C@H](COC)[C@@]2(C)C1=C(O)C(=O)C1=C2[C@H](OC(C)=O)C[C@]2(C)C(=O)CC[C@@H]12)CC=C
TESTED ON: IGROV1 ovarian
LABEL: active
--
MOLECULE: Cc1cc(Oc2ccccc2)ccc1Nc1ncnc2ccc(-c3cnc(Cl)c(NS(C)(=O)=O)c3)cc12
TESTED ON: IGROV1 ovarian
LABEL: active
--
MOLECULE: CO[C@H](C(=O)N[C@@H](CCCCNC(=O)OCc1ccccc1)C(=O)OC(C)(C)C)[C@@H]1Cc2cc3cc(OC4CC(OC5CC(O)C(O)C(C)O5)C(O)C(C)O4)c(C)c(O)c3c(O)c2C(=O)[C@H]1OC1CC(OC2CC(OC3CC(C)(O)C(O)C(C)O3)C(O)C(C)O2)C(O)C(C)O1 (stereo partly specified)
TESTED ON: IGROV1 ovarian
LABEL: inactive
--
MOLECULE: CC1(O)CCC(Nc2cc(-c3ccc(C(F)(F)F)cc3)c(C#N)c3nc4ccccc4n23)CC1 (stereo unspecified)
TESTED ON: IGROV1 ovarian
LABEL: inactive
--
MOLECULE: COc1ccc(-c2cc3c(oc2=O)-c2ccccc2OC3OC(C)=O)cc1 (stereo unspecified)
TESTED ON: IGROV1 ovarian
LABEL: inactive
--
MOLECULE: CN1[C@@H]2CC[C@H]1/C(=C\c1ccccc1)C1=C2[C@@H](c2ccccc2)C(C#N)=C(N)O1
TESTED ON: IGROV1 ovarian
LABEL: inactive
--
MOLECULE: Cc1cc2c(-c3nc4ccccn4c3NC34CC5CC(CC(C5)C3)C4)c(O)c(O)cc2c(O)c1-c1c(C)cc2c(-c3nc4ccccn4c3NC34CC5CC(CC(C5)C3)C4)c(O)c(O)cc2c1O
TESTED ON: IGROV1 ovarian
LABEL: inactive
--
MOLECULE: O=C(NO)c1ccc(Cn2c(=O)n(-c3ccccc3F)c(=O)c3ccccc32)cc1
TESTED ON: IGROV1 ovarian
LABEL: active
--
MOLECULE: COc1ncc(-c2ccc3nccc(-c4ccnnc4)c3c2)cc1NS(=O)(=O)c1ccc(F)cc1F
TESTED ON: IGROV1 ovarian
LABEL: active
--
MOLECULE: O=C(Nc1cccc(Cl)c1)Nc1ncc(CCNc2ncnc3ccsc23)s1
TESTED ON: IGROV1 ovarian
LABEL: inactive
--
MOLECULE: CNC(=O)c1cc(Oc2ccc3nc(NC(=O)Nc4ccc(Cl)c(C(F)(F)F)c4)sc3c2)ccn1
TESTED ON: IGROV1 ovarian
LABEL: inactive
--
MOLECULE: CCS(=O)(=O)N1CCN(c2ccc(Nc3ncc(C(N)=O)c(NC4CC4)n3)cc2)CC1
TESTED ON: IGROV1 ovarian
LABEL: inactive

====

# Tested on: MDA-MB-231 breast
# EXPERIMENT DESCRIPTION: NCI-60 one-dose screen, 48 h (100 = growth as untreated, 0 = no growth, -100 = all killed)
# CONDITION SUMMARY: 10 µM unless noted
Compounds without any hit were thinned out: in the full panel of roughly 83,000, 20% have a hit.
Below is a list of entries, each paired with its recorded growth value.

COMPOUND: O=C(COc1cccc(/C=C2\Cc3ccc(Cl)cc3C2=O)c1)Nc1nccs1
READOUT UNITS: %
growth: 71.7
--
COMPOUND: Cn1ccnc1C(=O)/C=C/c1ccc(CC(=O)Nc2ccc(C(F)(F)F)cc2)cc1
READOUT UNITS: %
growth: 8.95
--
COMPOUND: CCNCCNc1cc(-c2ccc(Cl)c(Cl)c2)c(C#N)c2nc3ccccc3n12
READOUT UNITS: %
growth: -77.5
--
COMPOUND: CC(=O)CC1CCCC1c1ccc2ccccc2c1 (stereo not given)
READOUT UNITS: %
growth: 102
--
COMPOUND: COc1ccc(-c2nocc2-c2cc(OC)c(OC)c(OC)c2)cc1
READOUT UNITS: %
growth: 25.8
--
COMPOUND: COc1ccc(/C(C)=C(\c2ccc(Cl)cc2)c2ccc(OCCN3CCCCCC3)cc2)cc1
READOUT UNITS: %
growth: 57.4
--
COMPOUND: O=c1nc2c(-c3nc4ccccc4s3)n[nH]n2c2sc3c(c12)CCCC3
READOUT UNITS: %
growth: 93.7
--
COMPOUND: Cc1cc(N2CCOCC2)nc(N(CCNc2ccnc3cc(Cl)ccc23)Cc2cccs2)n1
READOUT UNITS: %
growth: -0.994
--
COMPOUND: O=c1[nH]c([C@@H]2CCCN2)nc2c1oc1ccc(Cl)cc12
READOUT UNITS: %
growth: 67.3
--
COMPOUND: O=C1NC(=O)/C(=C/c2ccc3nccc(-c4ccncc4)c3c2)S1
READOUT UNITS: %
growth: -13.3

====

# Tested on: NCI/ADR-RES ovarian
# EXPERIMENT DESCRIPTION: NCI-60 one-dose screen, 48 h (100 = growth as untreated, 0 = no growth, -100 = all killed)
# CONDITION SUMMARY: 10 µM unless noted
The panel holds about 83,000 compounds, 20% with a hit somewhere; the sample as a whole holds those more often.
Note to self: values exactly at 40% are yes (1). So growth at or above 40% is yes (1), below is no (0).

SMILES STRUCTURE: Oc1ccc(C(c2ccc(O)cc2)C(Cl)(Cl)Cl)cc1
LABEL: yes (1)

SMILES STRUCTURE: NC(=O)c1c(OCc2c(F)cc(Br)cc2F)nsc1NC(=O)NCCCCN1CCCC1
LABEL: no (0)

SMILES STRUCTURE: COc1ccc(F)c(F)c1C(=O)c1cnc(NC2CCN(S(C)(=O)=O)CC2)nc1N
LABEL: no (0)

SMILES STRUCTURE: C[C@]12O[C@H](C[C@]1(O)CO)n1c3ccccc3c3c4c(c5c6ccccc6n2c5c31)CNC4=O
LABEL: no (0)

====

# System: HT29 colon
# EXPERIMENT DESCRIPTION: NCI-60 one-dose screen, 48 h (100 = growth as untreated, 0 = no growth, -100 = all killed)
# CONDITION SUMMARY: 10 µM unless noted
About 83,000 compounds went through this panel and 20% of them were active in at least one assay; those are over-represented in the sample as a whole.
Here, each record is paired with measured growth data.

MOLECULE: COc1cc(-c2nc(C(=O)NCC(=O)O)nn2-c2ccc(Cl)cc2)cc(OC)c1OC
growth (%): 106

MOLECULE: Cc1cccc(Cl)c1NC(=O)c1cnc(Nc2cc(N3CCOCC3)cc(N3CCOCC3)c2)s1
growth (%): -10.2

MOLECULE: COc1ccc(S(=O)(=O)N(C(C)=O)c2ccccc2/C=C/c2cc[n+]([O-])cc2)cc1
growth (%): 1.49

MOLECULE: CCc1nc2ccc(Cc3ccc(C(=O)NO)cc3)cc2c(=O)n1CCc1ccccc1
growth (%): -40.8

MOLECULE: COC(=O)Nc1nc2ccc(C(=O)c3ccc(N(C)C4COC4)cc3)cc2[nH]1
growth (%): 0.909

MOLECULE: Cc1cccc(Cl)c1NC(=O)c1cnc(Nc2cc(N3CCOCC3)cc(S(C)(=O)=O)c2)s1
growth (%): -68

MOLECULE: COc1cnc2c(c1)C(=O)c1c-2n(CCCN2CCC(N)CC2)c(=O)c2cc([N+](=O)[O-])ccc12
growth (%): 36.5

MOLECULE: CCC1(/C=N/NC(N)=S)NC(=O)NC1=O (stereo unspecified)
growth (%): 94.9

MOLECULE: NC(=O)Nc1cc(-c2cccc(F)c2)sc1C(=O)N[C@H]1CCCNC1
growth (%): -24

MOLECULE: CC(=O)c1c(C)c2cnc(Nc3ccc(N4CCNCC4)cn3)nc2n(C2CCCC2)c1=O
growth (%): -22.8

MOLECULE: CC1=CC2c3oc(-c4ccccc4)c(C(=O)c4ccccc4)c3CNC2C=C1 (stereo unspecified)
growth (%): 84.2

MOLECULE: Cc1nc2ccc(-n3ncc(C(=O)c4cc5ccccc5[nH]4)c3N)cc2[nH]1
growth (%): 23.1

MOLECULE: Clc1ccc2c(NCCCNCc3ccc4c(c3)OCO4)ccnc2c1
growth (%): 4.6

MOLECULE: Cn1cnc2c(F)c(Nc3ccc(Br)cc3F)c(C(=O)NOCCO)cc21
growth (%): 6.34

MOLECULE: Nc1cc2c(cc1Br)-c1c(C(=O)O)cccc1C2O (stereo unspecified)
growth (%): 106

MOLECULE: C/C=C/C=N/NC(=S)Nc1ccccc1
growth (%): 106

MOLECULE: CCCCCCCCCCCC[n+]1ccccc1
growth (%): 1.53

MOLECULE: C#Cc1cccc(Nc2ncnc3cc4c(cc23)OCCOCCOCCO4)c1
growth (%): 57

MOLECULE: CC(=Nc1ccccc1)C1=C(O)C(Cc2ccc(O)cc2)NC1=O (stereo unspecified)
growth (%): 1.34

MOLECULE: C#Cc1cccc(Nc2ncnc3cc(OC)c(OCCCCCCC(=O)NO)cc23)c1
growth (%): -13.4

MOLECULE: COC(=O)N[C@@H](C)CNc1nccc(-c2cn(C(C)C)nc2-c2cc(Cl)cc(NS(C)(=O)=O)c2F)n1
growth (%): 7.99
